# Tested on: LXRb homodimer (NR concentration 270 nM)
# ASSAY_PROTOCOL: PBM binding z-score (relative to random genomic background probes); higher = stronger binding; sequences stand for … in GC…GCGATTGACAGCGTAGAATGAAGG
This listing pairs sequences with measured PBM binding z-score.
Simply state the number, no unit and no words.

Before answering, review these 5 worked examples.
{"SEQUENCE_STRING": "CCGACTCGGGCAAGGTTACCATAACGCACAGCCA", "PBM binding z-score": -1.13}
{"SEQUENCE_STRING": "CCAGACAGGTGAGAAGCTAACTCAGCCTCGATTA", "PBM binding z-score": -0.869}
{"SEQUENCE_STRING": "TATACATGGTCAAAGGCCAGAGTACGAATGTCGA", "PBM binding z-score": 0.623}
{"SEQUENCE_STRING": "ACTATTAGTTGACTTCGGGCAACCGATACGACGC", "PBM binding z-score": 0.752}
{"SEQUENCE_STRING": "CCTTACGGGTCACTGACGGGTTATAGCATTTGGA", "PBM binding z-score": 0.119}

Now for another entry.
## Task Would you mind telling me what PBM binding z-score value was observed for CCTACTGGGCCAAAGGTCATTGAGTCCAATGCTC ?
## Result 0.584
